Settings: pH 2.7
Marks after values point to notes of the source that are not given here.
Overview of recorded Log P for various compounds
Quantity Name: Log P

>>> result("CCOC(=O)C(C#N)=C(NC(C)COC)c1ccsc1Br (stereo not drawn) [Compound 714]")
"3.21^[a]"
>>> result("COC(=O)C(C#N)=C(NC(C)c1ccc(F)cc1)c1sc(C)nc1C(F)(F)F (mixture of isomers) [Compound 442]")
"3.64^[a]"
>>> result("C#CCNC(=O)C(C#N)=C(NC(C)c1nccs1)c1cn(C)nc1C(F)F (stereo not drawn) [Compound 1297]")
"2.04^[a]"
>>> result("COC(=O)C(C#N)=C(Nc1cccc(SC)c1)c1sc(C)nc1C(F)(F)F [Compound 504]")
"3.53^[a]"
>>> result("CCOC(=O)C(C#N)=C(NCCC(C)C)c1cccnc1Cl [Compound 1185]")
"3.44^[a]"
>>> result("CCOC(=O)C(C#N)=C(NC1CCC1)c1cc(Cl)ncc1Cl [Compound 797]")
"3.55^[a]"
>>> result("CC(C)C(C)NC(=C(C#N)C(=O)N1CCSC1C)c1cccnc1Cl (stereo not drawn) [Compound 1615]")
"3.6^[a]"
>>> result("CCOC(=O)C(C#N)=C(NC(C)C(C)OC)c1cccnc1Cl (stereo not drawn) [Compound 1527]")
"2.8^[a]"
>>> result("CCOC(=O)C(C#N)=C(NC(C)C(N)=O)c1cn(C)nc1C(F)F (racemic) [Compound 590]")
"1.5^[a]"
>>> result("CCOC(=O)C(C#N)=C(NC(C)C(C)Sc1ccccc1)c1cn(C)nc1C(F)F (stereo not drawn) [Compound 737]")
"3.87^[a]"
>>> result("COCCNC(=O)C(C#N)=C(NC(C)c1nccs1)c1cccnc1Cl (stereo not drawn) [Compound 327]")
"1.93^[a]"
>>> result("CCOC(=O)C(C#N)=C(NCc1ccc(F)cn1)c1sccc1Br [Compound 200]")
"3.04^[a]"
>>> result("CCOC(=O)C(C#N)=C(NC(C)c1nc2ccccc2[nH]1)c1cccnc1Cl (racemic) [Compound 279]")
"2^[a]"
>>> result("CCOC(=O)C(C#N)=C(NC(C)CCc1ccccc1)c1cccnc1Cl (stereo not drawn) [Compound 1167]")
"3.92^[a]"
>>> result("CCOC(=O)C(C#N)=C(NC1CCC1)c1ccnc2ccccc12 [Compound 1498]")
"2.88^[a]"
>>> result("CCOC(=O)C(C#N)=C(Nc1ccc(OC(F)F)cc1)c1ccsc1Br [Compound 532]")
"3.73^[a]"
>>> result("CCOC(=O)C(C#N)=C(NC(C)c1ccccn1)c1c(C(F)(F)F)nn(C)c1F (mixture of isomers) [Compound 310]")
"3.12^[a]"
>>> result("COC(=O)C(C#N)=C(NC(C)(C)C#N)c1sc(C)nc1C(F)(F)F [Compound 1010]")
"3.04^[a]"
